- Test system: S. pneumoniae D39V
- ASSAY COMMENT: Bliss interaction score (quartile over a dose matrix) (fitness difference); higher = more antagonism (negative = synergy)
Tick Y if Bliss interaction score is 0.05 or greater. Tick N if Bliss interaction score is less than 0.05.

1. CC(=O)Oc1ccccc1C(=O)O [Acetylsalicylicacid] + Cc1ncc([N+](=O)[O-])n1CCO [Metronidazole]: Y
2. C[C@H]1c2cccc(O)c2C(=O)C2=C(O)[C@]3(O)C(=O)C(C(N)=O)=C(O)[C@@H](N(C)C)[C@@H]3[C@@H](O)[C@@H]21 [Doxycycline] + CO[C@H]1/C=C/O[C@@]2(C)Oc3c(C)c(O)c4c(O)c(c(/C=N/N5CCN(C)CC5)c(O)c4c3C2=O)NC(=O)/C(C)=C\C=C\[C@H](C)[C@H](O)[C@@H](C)[C@@H](O)[C@@H](C)[C@H](OC(C)=O)[C@@H]1C [Rifampicin]: N
3. CC(=O)Oc1ccccc1C(=O)O [Acetylsalicylicacid] + CO[C@H]1/C=C/O[C@@]2(C)Oc3c(C)c(O)c4c(O)c(c(/C=N/N5CCN(C)CC5)c(O)c4c3C2=O)NC(=O)/C(C)=C\C=C\[C@H](C)[C@H](O)[C@@H](C)[C@@H](O)[C@@H](C)[C@H](OC(C)=O)[C@@H]1C [Rifampicin]: N
4. CC(=O)Oc1ccccc1C(=O)O [Acetylsalicylicacid] + CO/N=C(\C(=O)N[C@@H]1C(=O)N2C(C(=O)O)=C(COC(N)=O)CS[C@H]12)c1ccco1 [Cefuroxime]: Y
5. O=C(O)c1cn(C2CC2)c2cc(N3CCNCC3)c(F)cc2c1=O [Ciprofloxacin] + CC[C@H]1OC(=O)[C@H](C)[C@@H](O[C@H]2C[C@@](C)(OC)[C@@H](O)[C@H](C)O2)[C@H](C)[C@@H](O[C@@H]2O[C@H](C)C[C@H](N(C)C)[C@H]2O)[C@](C)(O)C[C@@H](C)C(=O)[C@H](C)[C@@H](O)[C@]1(C)O [Erythromycin]: Y

Query: Can CO/N=C(\C(=O)N[C@@H]1C(=O)N2C(C(=O)O)=C(COC(C)=O)CS[C@H]12)c1csc(N)n1 [Cefotaxime] + C[n+]1ccc(-c2cc[n+](C)cc2)cc1 [Paraquat] be said to have Bliss interaction score at or above 0.05?
Response: N

Query: Can N#CC(C#N)=NNc1cccc(Cl)c1 [CCCP] + CC[C@H]1OC(=O)[C@H](C)[C@@H](O[C@H]2C[C@@](C)(OC)[C@@H](O)[C@H](C)O2)[C@H](C)[C@@H](O[C@@H]2O[C@H](C)C[C@H](N(C)C)[C@H]2O)[C@](C)(OC)C[C@@H](C)C(=O)[C@H](C)[C@@H](O)[C@]1(C)O [Clarithromycin] be said to have Bliss interaction score at or above 0.05?
Response: N

====

- Test system: S. pneumoniae D39V
- ASSAY COMMENT: Bliss interaction score (quartile over a dose matrix) (fitness difference); higher = more antagonism (negative = synergy)
Item-by-item account of Bliss interaction score
Note: the reply should be a number with no unit written.

Below, 4 molecules whose answers are already recorded.
1) CO/N=C(\C(=O)N[C@@H]1C(=O)N2C(C(=O)O)=C(COC(C)=O)CS[C@H]12)c1csc(N)n1 [Cefotaxime] + C[C@H]1COc2c(N3CCN(C)CC3)c(F)cc3c(=O)c(C(=O)O)cn1c23 [Levofloxacin]: 0.112
2) COc1cccc2c1C(=O)c1c(O)c3c(c(O)c1C2=O)C[C@@](O)(C(=O)CO)C[C@@H]3O[C@H]1C[C@H](N)[C@H](O)[C@H](C)O1 [Doxorubicin] + O=C(O[C@@H]1Cc2c(O)cc(O)cc2O[C@@H]1c1cc(O)c(O)c(O)c1)c1cc(O)c(O)c(O)c1 [EGCG]: 0.0782
3) CC(=O)Oc1ccccc1C(=O)O [Acetylsalicylicacid] + C[C@H]1COc2c(N3CCN(C)CC3)c(F)cc3c(=O)c(C(=O)O)cn1c23 [Levofloxacin]: 0.142
4) C[C@@H]1O[C@@H]1P(=O)(O)O [Fosfomycin] + Clc1ccc(COC(Cn2ccnc2)c2ccc(Cl)cc2Cl)c(Cl)c1 [Miconazole]: 0.0499

Next molecule, Bliss interaction score to be filled in.
Query: Given CC(=O)Oc1ccccc1C(=O)O [Acetylsalicylicacid] + N[C@@H]1CONC1=O [CycloserineD] , respond with its Bliss interaction score.
Response: 0.146

====

- Test system: S. aureus DSM 20231
- ASSAY COMMENT: Bliss interaction score (quartile over a dose matrix) (fitness difference); higher = more antagonism (negative = synergy)
ASSAY READOUT: Bliss interaction score
Note: the reply should be a number with no unit written.

Below, 2 molecules whose answers are already recorded.
1. O=C(O)c1cn(C2CC2)c2cc(N3CCNCC3)c(F)cc2c1=O [Ciprofloxacin] + CC(=O)O[C@H]1C[C@@]2(C)[C@@H](C[C@@H](O)[C@H]3[C@@]4(C)CC[C@@H](O)[C@@H](C)[C@@H]4CC[C@@]32C)/C1=C(\CCC=C(C)C)C(=O)O [Fusidic acid]: 0.04
2. COc1ccc(C[C@H](N)C(=O)N[C@H]2[C@@H](O)[C@H](n3cnc4c(N(C)C)ncnc43)O[C@@H]2CO)cc1 [Puromycin] + CN[C@H](CC(C)C)C(=O)N[C@H]1C(=O)N[C@@H](CC(N)=O)C(=O)N[C@H]2C(=O)N[C@H]3C(=O)N[C@H](C(=O)N[C@H](C(=O)O)c4cc(O)cc(O)c4-c4cc3ccc4O)[C@H](O)c3ccc(c(Cl)c3)Oc3cc2cc(c3O[C@@H]2O[C@H](CO)[C@@H](O)[C@H](O)[C@H]2O[C@H]2C[C@](C)(N)[C@H](O)[C@H](C)O2)Oc2ccc(cc2Cl)[C@H]1O [Vancomycin]: 0.0659

Query: Given CN(C)[C@@H]1C(O)=C(C(N)=O)C(=O)[C@@]2(O)C(O)=C3C(=O)c4c(O)ccc(Cl)c4[C@@](C)(O)[C@H]3C[C@@H]12 [Clortetracycline] + OCc1cc(C(O)CNCCCCCCOCCCCc2ccccc2)ccc1O [Salmeterol] , respond with its Bliss interaction score.
Response: -0.118

====

- Test system: S. pneumoniae D39V
- ASSAY COMMENT: Bliss interaction score (quartile over a dose matrix) (fitness difference); higher = more antagonism (negative = synergy)
Item-by-item account of Bliss interaction score
Note: the reply should be a number with no unit written.

1) CN(C)[C@@H]1C(O)=C(C(N)=O)C(=O)[C@@]2(O)C(O)=C3C(=O)c4c(O)ccc(Cl)c4[C@@](C)(O)[C@H]3C[C@@H]12 [Clortetracycline] + C[C@@H]1O[C@@H]1P(=O)(O)O [Fosfomycin]: 0.0517

Next molecule, Bliss interaction score to be filled in.
Query: Given C[C@H]1c2cccc(O)c2C(=O)C2=C(O)[C@]3(O)C(=O)C(C(N)=O)=C(O)[C@@H](N(C)C)[C@@H]3[C@@H](O)[C@@H]21 [Doxycycline] + CN1C2=CC=CC=C2N=C3C1=CC=CC3=O [Pyocyanin] , respond with its Bliss interaction score.
Response: 0.127

====

- Tested on: B. subtilis 168;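 also: OD595 on entry to stationary phase over no-drug wells; at most 1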
- ASSAY COMMENT: fitness (endpoint OD595 vs no drug) (fraction); higher = more growth
- CONDITION SUMMARY: first compound 1.562 µg/mL; partner 0.125 µg/mL; one replicate
Tick Met if fitness is 0.3 or greater. Tick Not met if fitness is less than 0.3.

1) CO/N=C(\C(=O)N[C@@H]1C(=O)N2C(C(=O)O)=C(COC(N)=O)CS[C@H]12)c1ccco1 [Cefuroxime] + CC1=C\[C@@H](O)CC(=O)Cc2nc(co2)C(=O)N2CCC=C2C(=O)O[C@H](C(C)C)[C@H](C)/C=C/C(=O)NC\C=C\1 [Virginiamycin M1]: Met
2) CO/N=C(\C(=O)N[C@@H]1C(=O)N2C(C(=O)O)=C(COC(N)=O)CS[C@H]12)c1ccco1 [Cefuroxime] + CC(=O)NC[C@H]1CN(c2ccc(N3CCOCC3)c(F)c2)C(=O)O1 [Linezolid]: Met
3) CO/N=C(\C(=O)N[C@@H]1C(=O)N2C(C(=O)O)=C(COC(N)=O)CS[C@H]12)c1ccco1 [Cefuroxime] + CC1=C(C(=O)O)N2C(=O)[C@@H](NC(=O)[C@H](N)c3ccccc3)[C@H]2SC1 [Cephalexin]: Met
4) C[C@@H]1O[C@@H]1P(=O)(O)O [Fosfomycin] + CN(C)c1cc(NC(=O)CNC(C)(C)C)c(O)c2c1C[C@H]1C[C@H]3[C@H](N(C)C)C(O)=C(C(N)=O)C(=O)[C@@]3(O)C(O)=C1C2=O: Met
5) CO/N=C(\C(=O)N[C@@H]1C(=O)N2C(C(=O)O)=C(COC(N)=O)CS[C@H]12)c1ccco1 [Cefuroxime] + N[C@@H]1CONC1=O [Cycloserine D]: Met

Attention now shifts to the item below.
Query: Can CO/N=C(\C(=O)N[C@@H]1C(=O)N2C(C(=O)O)=C(COC(N)=O)CS[C@H]12)c1ccco1 [Cefuroxime] + C[C@H]1COc2c(N3CCN(C)CC3)c(F)cc3c(=O)c(C(=O)O)cn1c23 [Levofloxacin] be said to have fitness at or above 0.3?
Response: Not met
